These data points were gathered from ChEMBL document CHEMBL1135831.

Measured Ratio, listed per entry.
# experiment: Selectivity ratio 3[H]DA uptake /DAT binding

Qu. For `C=C(C)c1ccc(CN2CCC(CCOC(c3ccccc3)c3ccccc3)CC2)cc1` , write its Ratio.
Ans. 0.26

Qu. For `Ic1ccc(CN2CCC(CCOC(c3ccccc3)c3ccccc3)CC2)cc1` , write its Ratio.
Ans. 2.1

Qu. For `C=Cc1ccc(CN2CCC(CCOC(c3ccccc3)c3ccccc3)CC2)cc1` , write its Ratio.
Ans. 0.36

Qu. For `C#Cc1ccc(CN2CCC(CCOC(c3ccccc3)c3ccccc3)CC2)cc1` , write its Ratio.
Ans. 1.2

Qu. For `Oc1cccc(CN2CCC(CCOC(c3ccccc3)c3ccccc3)CC2)c1` , write its Ratio.
Ans. 0.72

---
Qu. For `COc1cccc(CN2CCC(CCOC(c3ccccc3)c3ccccc3)CC2)c1` , write its Ratio.
Ans. 0.34

Qu. For `COC(=O)c1ccc(CN2CCC(CCOC(c3ccccc3)c3ccccc3)CC2)cc1` , write its Ratio.
Ans. 0.23

====

# tested target: Sodium-dependent dopamine transporter (Rattus norvegicus)
measurement kind: pIC50
Friendly reminder that pIC50 comes from taking -log10 of the concentration in mol/L.

Consider the worked cases shown below.
Qu. Enter measured pIC50, system Sodium-dependent dopamine transporter (Rattus norvegicus), for the compound shown: `COC(=O)c1ccc(CN2CCC(CCOC(c3ccccc3)c3ccccc3)CC2)cc1`
Ans. 8.08

Qu. Enter measured pIC50, system Sodium-dependent dopamine transporter (Rattus norvegicus), for the compound shown: `C=Cc1ccc(CN2CCC(CCOC(c3ccccc3)c3ccccc3)CC2)cc1`
Ans. 8.53

Qu. Enter measured pIC50, system Sodium-dependent dopamine transporter (Rattus norvegicus), for the compound shown: `Oc1ccc(CN2CCC(CCOC(c3ccccc3)c3ccccc3)CC2)cc1`
Ans. 6.62

Qu. Enter measured pIC50, system Sodium-dependent dopamine transporter (Rattus norvegicus), for the compound shown: `CC#Cc1ccc(CN2CCC(CCOC(c3ccccc3)c3ccccc3)CC2)cc1`
Ans. 7.19

Qu. Enter measured pIC50, system Sodium-dependent dopamine transporter (Rattus norvegicus), for the compound shown: `C#Cc1ccc(CN2CCC(CCOC(c3ccccc3)c3ccccc3)CC2)cc1`
Ans. 8.39

Pending compound:
Qu. Enter measured pIC50, system Sodium-dependent dopamine transporter (Rattus norvegicus), for the compound shown: `C=C(C)c1ccc(CN2CCC(CCOC(c3ccccc3)c3ccccc3)CC2)cc1`
Ans. 7.94

====

# tested target: Monoamine transporters; serotonin & dopamine (Rattus norvegicus) (UniProt P31652+P23977)
# Sequence (P23977 whole entry, looked up): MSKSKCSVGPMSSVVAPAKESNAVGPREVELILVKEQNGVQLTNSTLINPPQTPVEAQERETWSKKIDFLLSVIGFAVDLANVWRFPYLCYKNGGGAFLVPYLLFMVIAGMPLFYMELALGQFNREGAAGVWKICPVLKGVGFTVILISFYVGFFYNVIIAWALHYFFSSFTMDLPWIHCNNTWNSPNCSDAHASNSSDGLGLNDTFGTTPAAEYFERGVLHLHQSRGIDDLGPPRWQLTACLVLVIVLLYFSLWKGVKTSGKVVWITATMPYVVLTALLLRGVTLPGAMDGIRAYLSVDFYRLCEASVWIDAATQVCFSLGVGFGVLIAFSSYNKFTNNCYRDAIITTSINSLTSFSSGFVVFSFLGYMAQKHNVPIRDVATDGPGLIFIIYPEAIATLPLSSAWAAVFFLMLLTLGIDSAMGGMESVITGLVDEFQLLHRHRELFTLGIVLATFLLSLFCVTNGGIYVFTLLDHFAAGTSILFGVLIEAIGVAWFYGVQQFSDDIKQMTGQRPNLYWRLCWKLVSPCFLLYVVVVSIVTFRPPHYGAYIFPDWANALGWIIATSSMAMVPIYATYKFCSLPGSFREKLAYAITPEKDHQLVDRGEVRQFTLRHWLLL
# Sequence (P31652 whole entry, looked up): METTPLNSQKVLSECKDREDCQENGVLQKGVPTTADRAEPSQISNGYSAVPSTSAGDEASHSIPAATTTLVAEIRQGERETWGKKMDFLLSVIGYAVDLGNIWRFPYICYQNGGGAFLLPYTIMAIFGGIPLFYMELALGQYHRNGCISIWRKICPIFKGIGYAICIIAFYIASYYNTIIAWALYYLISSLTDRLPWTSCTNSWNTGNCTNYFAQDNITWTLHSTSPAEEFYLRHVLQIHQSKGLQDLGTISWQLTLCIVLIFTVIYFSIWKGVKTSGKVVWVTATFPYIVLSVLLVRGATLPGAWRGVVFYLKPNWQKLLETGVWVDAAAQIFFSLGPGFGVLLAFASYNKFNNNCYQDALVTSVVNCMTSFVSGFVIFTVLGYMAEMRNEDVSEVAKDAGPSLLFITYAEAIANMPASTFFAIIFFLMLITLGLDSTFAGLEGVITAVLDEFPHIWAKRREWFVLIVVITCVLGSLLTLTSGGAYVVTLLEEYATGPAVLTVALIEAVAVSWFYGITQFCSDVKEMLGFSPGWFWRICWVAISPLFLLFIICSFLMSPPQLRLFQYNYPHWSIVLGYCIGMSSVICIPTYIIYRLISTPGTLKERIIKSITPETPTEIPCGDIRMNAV
# experiment: Relative binding to serotonin and dopamine transporters
# Type: protein assay
measurement kind: Ratio

Consider the worked cases shown below.
Qu. For `C=C(C)c1ccc(CN2CCC(CCOC(c3ccccc3)c3ccccc3)CC2)cc1` , write its Ratio.
Ans. 88

Qu. For `Oc1cccc(CN2CCC(CCOC(c3ccccc3)c3ccccc3)CC2)c1` , write its Ratio.
Ans. 69

Qu. For `CC#Cc1ccc(CN2CCC(CCOC(c3ccccc3)c3ccccc3)CC2)cc1` , write its Ratio.
Ans. 37

Qu. For `COc1cccc(CN2CCC(CCOC(c3ccccc3)c3ccccc3)CC2)c1` , write its Ratio.
Ans. 55

Qu. For `Oc1ccc(CN2CCC(CCOC(c3ccccc3)c3ccccc3)CC2)cc1` , write its Ratio.
Ans. 18

Qu. For `C=Cc1ccc(CN2CCC(CCOC(c3ccccc3)c3ccccc3)CC2)cc1` , write its Ratio.
Ans. 500

Qu. For `COC(=O)c1ccc(CN2CCC(CCOC(c3ccccc3)c3ccccc3)CC2)cc1` , write its Ratio.
Ans. 110

Qu. For `C#Cc1ccc(CN2CCC(CCOC(c3ccccc3)c3ccccc3)CC2)cc1` , write its Ratio.
Ans. 250

Pending molecule:
Qu. For `Ic1ccc(CN2CCC(CCOC(c3ccccc3)c3ccccc3)CC2)cc1` , write its Ratio.
Ans. 3040

====

# tested target: UniProt P31652
Lab note: cut-off is 1000 nM. Strictly less in IC50 is condition met. Exactly 1000 nM or more is condition not met.

Some solved entries appear below for comparison.
Qu. Check if IC50 falls below 1000 nM for `COC(=O)c1ccc(CN2CCC(CCOC(c3ccccc3)c3ccccc3)CC2)cc1` .
Ans. condition met

Qu. Check if IC50 falls below 1000 nM for `C#Cc1ccc(CN2CCC(CCOC(c3ccccc3)c3ccccc3)CC2)cc1` .
Ans. condition not met

Qu. Check if IC50 falls below 1000 nM for `Oc1ccc(CN2CCC(CCOC(c3ccccc3)c3ccccc3)CC2)cc1` .
Ans. condition not met

Qu. Check if IC50 falls below 1000 nM for `COc1cccc(CN2CCC(CCOC(c3ccccc3)c3ccccc3)CC2)c1` .
Ans. condition not met

---
Qu. Check if IC50 falls below 1000 nM for `CC#Cc1ccc(CN2CCC(CCOC(c3ccccc3)c3ccccc3)CC2)cc1` .
Ans. condition not met

Qu. Check if IC50 falls below 1000 nM for `C=Cc1ccc(CN2CCC(CCOC(c3ccccc3)c3ccccc3)CC2)cc1` .
Ans. condition not met
